I'd be grateful if you could share measured pIC50 for these entries.
testedSystem: CDK2 (Homo sapiens, UniProt P24941)
Answers are plain numbers, as −log10 of the molar value.

- CNc1nc(C)c(-c2nc(Nc3cccc(C(=O)N4CCOCC4)c3)ncc2C#N)s1: 6.83

Now for another entry.
Prompt: Could you tell me which pIC50 is on file for CNc1nc(C)c(-c2nc(Nc3cccc(C(=O)N4CCN(C(C)=O)CC4)c3)ncc2C#N)s1 ?
Completion: 7.28

----------
assayInfo: 72-h MTT cytotoxicity assay
Assay type: cell-based
assayContext: human, MRC5 cells
quantityMeasured: GI50 at 72 h

- COc1cccc(-c2nc(NO)nc(Nc3cccc([N+](=O)[O-])c3)n2)c1: 4.24 µM
- CNc1nc(C)c(-c2nc(Nc3cccc(C(=O)O)c3)ncc2C#N)s1: > 100 µM
- COc1cccc(-c2nc(Cl)nc(Nc3ccc(C)c(S(=O)(=O)N4CCOCC4)c3)n2)c1: 0.58 µM

Now for another entry.
Prompt: Could you tell me which GI50 at 72 h is on file for CNc1nc(C)c(-c2nc(Nc3ccc(S(N)(=O)=O)cc3)ncc2C#N)s1 ?
Completion: 26 µM
